B1: Osa-1-4 twister ribozyme (parent)
chain: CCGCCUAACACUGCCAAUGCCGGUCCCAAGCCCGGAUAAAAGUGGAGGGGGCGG

Variants of: B1
Method notes: self-cleavage, relative activity (ratio to wild type); higher = more cleavage; co-transcriptional
Let's look at some variants and their measured self-cleavage.

Sequence variant | self-cleavage
A10G C20G | 0.09
C14G G44C | 0.07
C31G G50U | 0.06
C21G C25A | 0.04
A41C G22U | 0.49
C14A G54C | 0.06
A46U A7C | 0.02
C15U G54C | 0.14
A16G G47U | 0.49
A28U A7U | 0.07
A38C C25A | 0.07
